All figures here come from ChEMBL document CHEMBL1681689.

# IC50 measurements, system: Cytochrome P450 3A4 (Homo sapiens, UniProt P08684)
# Sequence (P08684 whole entry): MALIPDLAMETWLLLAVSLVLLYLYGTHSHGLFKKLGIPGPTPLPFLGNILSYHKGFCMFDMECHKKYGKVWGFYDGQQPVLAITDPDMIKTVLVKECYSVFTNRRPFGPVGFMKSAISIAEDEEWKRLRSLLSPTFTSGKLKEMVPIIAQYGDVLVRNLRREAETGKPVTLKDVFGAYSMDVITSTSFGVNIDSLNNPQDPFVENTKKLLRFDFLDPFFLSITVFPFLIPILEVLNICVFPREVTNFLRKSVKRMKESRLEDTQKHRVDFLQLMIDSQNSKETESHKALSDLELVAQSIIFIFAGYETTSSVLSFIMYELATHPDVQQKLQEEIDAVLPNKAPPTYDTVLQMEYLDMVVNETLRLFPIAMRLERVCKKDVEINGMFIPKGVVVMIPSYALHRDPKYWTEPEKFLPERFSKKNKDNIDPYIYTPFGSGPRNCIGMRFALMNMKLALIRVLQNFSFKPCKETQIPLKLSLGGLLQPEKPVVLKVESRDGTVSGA

>  <molecule>
CC(N(C)C)C1(c2ccc(Cl)c(Cl)c2)CCCCC1.Cl (configuration not stated)

>  <recorded_endpoint>
IC50

>  <reported_result>
> 25 µM

$$$$

Now for a further molecule.
*Q* # input molecule: CC(N(C)C)C1(c2ccc3ccccc3c2)CCCCC1.Cl (single isomer, unassigned; form 2) ; wanted: its IC50
*A* > 5 µM

====

# pIC50 measurements, system: Voltage-gated inwardly rectifying potassium channel KCNH2 (Homo sapiens)
# Sequence (Q12809 whole entry): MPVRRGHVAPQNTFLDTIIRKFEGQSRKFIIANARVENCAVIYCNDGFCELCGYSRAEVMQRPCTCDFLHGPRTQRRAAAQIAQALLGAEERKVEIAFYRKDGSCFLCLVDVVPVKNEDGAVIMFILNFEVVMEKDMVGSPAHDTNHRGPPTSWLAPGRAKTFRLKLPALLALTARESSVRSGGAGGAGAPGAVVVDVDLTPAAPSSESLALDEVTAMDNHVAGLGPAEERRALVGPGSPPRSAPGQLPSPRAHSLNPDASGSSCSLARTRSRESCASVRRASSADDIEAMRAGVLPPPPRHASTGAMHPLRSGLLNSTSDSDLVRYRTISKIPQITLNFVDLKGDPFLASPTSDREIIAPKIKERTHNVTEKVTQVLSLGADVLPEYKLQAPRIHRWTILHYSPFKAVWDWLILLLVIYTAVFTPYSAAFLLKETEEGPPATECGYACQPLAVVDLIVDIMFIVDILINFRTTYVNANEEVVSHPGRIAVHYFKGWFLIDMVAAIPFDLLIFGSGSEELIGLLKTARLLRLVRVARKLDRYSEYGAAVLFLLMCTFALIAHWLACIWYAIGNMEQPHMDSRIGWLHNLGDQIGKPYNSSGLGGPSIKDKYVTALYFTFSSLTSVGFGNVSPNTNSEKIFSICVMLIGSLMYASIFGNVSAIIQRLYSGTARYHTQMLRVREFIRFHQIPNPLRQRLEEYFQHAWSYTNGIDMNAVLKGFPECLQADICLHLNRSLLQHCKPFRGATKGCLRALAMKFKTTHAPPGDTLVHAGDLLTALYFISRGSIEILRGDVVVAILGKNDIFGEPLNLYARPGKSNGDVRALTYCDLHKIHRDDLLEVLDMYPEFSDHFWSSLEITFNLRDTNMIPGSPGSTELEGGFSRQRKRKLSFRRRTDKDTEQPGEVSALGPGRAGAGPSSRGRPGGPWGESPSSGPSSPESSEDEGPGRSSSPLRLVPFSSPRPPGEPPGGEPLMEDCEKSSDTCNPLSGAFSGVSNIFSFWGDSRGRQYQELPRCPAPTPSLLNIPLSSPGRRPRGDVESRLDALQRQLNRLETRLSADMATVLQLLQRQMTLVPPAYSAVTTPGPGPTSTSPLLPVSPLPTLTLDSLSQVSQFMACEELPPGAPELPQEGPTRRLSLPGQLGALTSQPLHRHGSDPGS
Numbers only, as −log10 of the molar value.

>  <molecule>
CC(N(C)C)C1(c2ccc(Cl)c(Cl)c2)CCCCC1 (single isomer, unassigned; enantiomer 1)

>  <target_entity>
Voltage-gated inwardly rectifying potassium channel KCNH2 (Homo sapiens)

>  <reported_result>
4.40

$$$$

*Q* # input molecule: CC(N(C)C)C1(c2ccc3ccccc3c2)CCCCC1 (single isomer, unassigned; form 1) ; wanted: its pIC50
*A* 5.37
